# method.notes: A CellTox Green Cytotoxicity Assay to monitor cytotoxicity in HepG2 cells - 0 hour (AID 1224882); also: nearly all actives have a fitted effect of over 35% in size
# condition.info: CellTox Green fluorescence; series mostly up to 76.8 µM
The source made the active and inactive calls. Calls follow the shape of the dose curve; as a rule, active = well fitted activation curve with a large enough effect in the repeat runs; inconclusive = weak or mixed curves; inactive = flat fitted curve, though single readings scatter.
property.label: outcome

These solved cases illustrate the format of a correct answer.
[
  {
    "compound": "C=CC1CC=CCC1 (configuration not stated)",
    "outcome": "inactive"
  },
  {
    "compound": "O=C(CCN1CC1)OCC(CO)(COC(=O)CCN1CC1)COC(=O)CCN1CC1",
    "outcome": "inactive"
  },
  {
    "compound": "C[C@H]1CCC[C@H](O)CCCCCc2cc(O)cc(O)c2C(=O)O1",
    "outcome": "inactive"
  },
  {
    "compound": "CCc1cc2c(s1)-n1c(C)nnc1CN=C2c1ccccc1Cl",
    "outcome": "inactive"
  }
]

Recorded outcome of `CN1CCN(C(=O)O[C@H]2c3nccnc3C(=O)N2c2ccc(Cl)cn2)CC1` , please.
inactive

Okay, and `CCNc1nc(NC(C)C)nc(OC)n1` ?
inactive

Okay, and `Cc1ncc(CNC(=O)N(CCCl)N=O)c(N)n1` ?
inactive

====

# assayed.system: Cytochrome P450 1A2 (Homo sapiens) (UniProt P05177)
# Sequence (P05177 whole entry, looked up): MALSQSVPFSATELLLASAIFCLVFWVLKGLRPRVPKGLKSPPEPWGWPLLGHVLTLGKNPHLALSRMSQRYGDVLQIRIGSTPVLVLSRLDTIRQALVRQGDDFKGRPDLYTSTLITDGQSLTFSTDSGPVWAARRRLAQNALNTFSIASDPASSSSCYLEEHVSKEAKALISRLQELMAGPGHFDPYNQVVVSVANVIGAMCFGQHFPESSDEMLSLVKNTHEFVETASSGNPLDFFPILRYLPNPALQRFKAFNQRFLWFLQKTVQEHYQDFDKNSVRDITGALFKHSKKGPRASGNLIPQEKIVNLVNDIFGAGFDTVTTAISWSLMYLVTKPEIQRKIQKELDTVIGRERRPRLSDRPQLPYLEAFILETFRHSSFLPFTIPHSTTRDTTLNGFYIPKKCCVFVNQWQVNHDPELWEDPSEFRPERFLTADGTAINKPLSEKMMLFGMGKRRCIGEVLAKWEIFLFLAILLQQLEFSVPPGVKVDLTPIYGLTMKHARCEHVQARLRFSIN
# method.notes: Cytochrome P450 Family 1 Subfamily A Member 2 (CYP1A2) small molecule antagonists: luciferase reporter qHTS assay (AID 1671199); also: nearly all actives have a fitted effect of over 50% in size
# condition.info: P450-Glo CYP1A2 enzyme, luciferin luminescence, 1 h; series mostly up to 115 µM
Inconclusive results are not listed. Calls of active or inactive are those of the source. Calls come from the whole dose curve; as a rule, active = well fitted inhibition curve with a large enough effect in the repeat runs; inconclusive = weak or mixed curves; inactive = no such curve, though single readings can be large or run the other way.
Thanks in advance; please answer with one of these: T (active), F (inactive)

For `CC(C)CP(=S)(S)CC(C)C` , which call appears in the assay record?
F

Okay, and `CCOC(=O)C(c1c(O)c2ccccc2oc1=O)c1c(O)c2ccccc2oc1=O` ?
T

Okay, and `NC(=O)O` ?
F

Okay, and `c1cc[c]([Hg][c]2ccccc2)cc1` ?
T

Okay, and `COc1cc(OC)nc(Sc2cccc(Cl)c2C(=O)O)n1` ?
F

Okay, and `CSc1nc(N=[N+]=[N-])nc(NC(C)C)n1` ?
T

Okay, and `CCCSC(=O)Cl` ?
F

Okay, and `CCOP(=O)(OCC)OP(=O)(OCC)OCC` ?
F

Okay, and CC(C)CC(N(C)C)C1(c2ccc(Cl)cc2)CCC1 (stereo not drawn) ?
F

Okay, and `COc1ncc(F)c2nc(S(=O)(=O)Nc3c(F)cccc3F)nn12` ?
F

Okay, and `CN1CCN(C(=O)O[C@H]2c3nccnc3C(=O)N2c2ccc(Cl)cn2)CC1` ?
T

Okay, and CCC/C(=N\OCC)C1=C(O)CC(CC(C)SCC)CC1=O (stereo not drawn) ?
T

Okay, and `O=C(Nc1ccccc1)N(Cc1ccc(Cl)cc1)C1CCCC1` ?
T

====

# assayed.system: Luciferin 4-monooxygenase (Photinus pyralis)
# method.notes: qHTS assay to identify small molecule inhibitors of firefly luciferase (AID 1224835); also: nearly all actives have a fitted effect of over 25% in size
# condition.info: purified P. pyralis luciferase, luminescence inhibition; series mostly up to 115 µM
Results filed as inconclusive are left out. Activity calls are given as the source filed them. The call rests on the fitted dose curve; in most records, active means well fitted inhibition curve with a large enough effect in the repeat runs; inconclusive means weak or mixed curves; inactive means flat fitted curve, though single readings scatter.
Thanks in advance; please answer with one of these: True (active), False (inactive)

For `ClC(Cl)C(Cl)Cl` , which call appears in the assay record?
False

Okay, and `c1coc(-c2nc3ccccc3[nH]2)c1` ?
True

Okay, and CC(C)NCC(O)c1ccc(N)c(C#N)c1 (centres undefined) ?
False

Okay, and N#CC(O)c1ccccc1 (centres undefined) ?
False

Okay, and `CNC(=O)Oc1c(C(C)(C)C)cc(C)cc1C(C)(C)C` ?
False

Okay, and `CCOP(=S)(OCC)SCSP(=S)(OCC)OCC` ?
False

Okay, and OC(c1ccc(F)cc1)(c1cncnc1)c1ccccc1Cl (centres undefined) ?
False

Okay, and `CCCSC(=O)Cl` ?
False

Okay, and `O=[N+]([O-])c1cc(Cl)c(Cl)c(Cl)c1` ?
False

Okay, and COC(=O)C(C)Oc1ccc(Oc2ccc(Cl)cc2Cl)cc1 (centres undefined) ?
False

Okay, and `O=[N+]([O-])c1ccc(CBr)cc1` ?
False

Okay, and `CNC(=O)O/N=C(\C)SC` ?
False

Okay, and `ClC(Cl)Br` ?
False

Okay, and `Cc1nnc2n1-c1sc(CCC(=O)N3CCOCC3)cc1C(c1ccccc1Cl)=NC2` ?
False

====

# method.notes: qHTS assay to identify small molecule antagonists of the thyroid receptor (TR) signaling pathway - cell viability counter screen (AID 743064); also: nearly all actives have a fitted effect of over 50% in size
# condition.info: GH3.TRE-Luc viability, CellTiter-Fluor, 24 h; series mostly up to 70.3 µM
Records with an inconclusive call do not appear. Active and inactive are the calls of the source. Calls come from the whole dose curve; as a rule, active = well fitted cell-killing curve with a large enough effect in the repeat runs; inconclusive = weak or mixed curves, or effect the other way; inactive = no such curve, though single readings can be large or run the other way.
property.label: outcome

These solved cases illustrate the format of a correct answer.
[
  {
    "molecule": "N#CCNCC#N",
    "result": "inactive"
  },
  {
    "molecule": "BrCCCCCCBr",
    "result": "inactive"
  },
  {
    "molecule": "CSc1nc(N=[N+]=[N-])nc(NC(C)C)n1",
    "result": "inactive"
  },
  {
    "molecule": "CC(C)CC#N",
    "result": "inactive"
  },
  {
    "molecule": "OC(c1ccc(F)cc1)(c1cncnc1)c1ccccc1Cl (centres undefined)",
    "result": "inactive"
  },
  {
    "molecule": "CC(C)[N+](=O)[O-]",
    "result": "inactive"
  },
  {
    "molecule": "CCC1(c2ccccc2)C(=O)N=C(O)NC1=O (centres undefined)",
    "result": "inactive"
  },
  {
    "molecule": "NC(=O)c1cc([N+](=O)[O-])cc([N+](=O)[O-])c1",
    "result": "inactive"
  },
  {
    "molecule": "CNC(=O)Oc1ccc(N(C)C)c(C)c1",
    "result": "inactive"
  },
  {
    "molecule": "Cc1cc(C)c(C(=O)P(=O)(C(=O)c2c(C)cc(C)cc2C)c2ccccc2)c(C)c1",
    "result": "inactive"
  }
]

Recorded outcome of `O=NN1CCCCC1` , please.
inactive

====

# assayed.system: Androgen receptor (Homo sapiens)
# method.notes: qHTS assay to identify small molecule agonists of the androgen receptor (AR) signaling pathway in the presence of an antagonist (AID 1259381); also: nearly all actives have a fitted effect of over 15% in size
# condition.info: MDA-kb2 MMTV-luciferase, AR agonist + nilutamide, 16 h; series mostly up to 92.4 µM
The source made the active and inactive calls. Calls follow the shape of the full dose curve.
Thanks in advance; please answer with one of these: label 1 = active, label 0 = inactive

For `O=NN1CCCCC1` , which call appears in the assay record?
label 0

Okay, and O=CNC(N1CCN(C(NC=O)C(Cl)(Cl)Cl)CC1)C(Cl)(Cl)Cl (configuration not stated) ?
label 0

Okay, and O=C1OC(CCN2CCCCC2)OC1(c1ccccc1)c1ccccc1 (configuration not stated) ?
label 0

Okay, and CC(Oc1ccc(Oc2ncc(C(F)(F)F)cc2Cl)cc1)C(=O)O (configuration not stated) ?
label 0

Okay, and `C#C[C@]1(O)C=C[C@H]2[C@@H]3CCC4=CC(=O)CC[C@@H]4[C@H]3CC[C@@]21CC` ?
label 1

Okay, and `CC1(C)COP(Oc2ccccc2)OC1` ?
label 0

Okay, and CC(C)(C)NCC(O)c1cc(Cl)c(N)c(Cl)c1 (configuration not stated) ?
label 0

Okay, and `CNC(=O)Oc1c(C(C)(C)C)cc(C)cc1C(C)(C)C` ?
label 0

Okay, and `Fc1cc(Br)ccc1CBr` ?
label 0

Okay, and `CC(C)CC#N` ?
label 0

Okay, and `Nc1ccccc1Cl` ?
label 0

Okay, and `C#CCN1C(=O)COc2cc(F)c(N3C(=O)C4=C(CCCC4)C3=O)cc21` ?
label 0

Okay, and COc1ccc2c(c1OC)CN1CCc3cc4c(cc3C1C2)OCO4 (configuration not stated) ?
label 0

Okay, and `CCOP(=O)(OCC)OP(=O)(OCC)OCC` ?
label 0

Okay, and `CCC(=O)c1ccccc1` ?
label 0

Okay, and `CCCCOP(=O)(O)OCCCC` ?
label 0

Okay, and `CCOP(=S)(OCC)Oc1ncn(-c2ccccc2)n1` ?
label 0

Okay, and `c1ccc(N2CCNCC2)cc1` ?
label 0

Okay, and `Cc1cnc[nH]1` ?
label 0

Okay, and COC(=O)C(c1ccccc1)C1CCCCN1 (configuration not stated) ?
label 0

Okay, and `CCC(C)(C)c1cc(-n2nc3ccccc3n2)c(O)c(C(C)(C)CC)c1` ?
label 0

Okay, and COP(N)(=S)Oc1ccccc1C(=O)OC(C)C (configuration not stated) ?
label 0

Okay, and CC(COc1ccc(Oc2ccccc2)cc1)Oc1ccccn1 (configuration not stated) ?
label 0

Okay, and `CCCCOC(=O)c1ccccc1C(=O)O` ?
label 0

Okay, and `Clc1ccccc1N1CCNCC1` ?
label 0

Okay, and `Nc1c(Br)cc([N+](=O)[O-])cc1[N+](=O)[O-]` ?
label 0

Okay, and `COC(=O)c1c(C(F)F)nc(C(F)(F)F)c(C2=NCCS2)c1CC(C)C` ?
label 0
